# tested.on: human CB1 (hCB1) receptor (Homo sapiens)
# Construct: expressed in transfected cells; host or cells: CHO-K1
# experiment.description: Inhibition of forskolin-activated cAMP production upon activation of hCB1 (HTRF), CHO-K1 cells
# Assay type: cell-based
pEC50: −log10 of the molar value.
measured.property: pEC50

What does the data say about its pEC50? Entry: `COCCCc1cc(S(=O)(=O)c2ccc3c(c2)nc(C(C)(C)C)n3CC2CCOCC2)cc[n+]1[O-]` < 5.00

---

# tested.on: human CB2 (hCB2) receptor (Homo sapiens)
# Construct: expressed in transfected cells; host or cells: CHO-K1
# experiment.description: Inhibition of forskolin-activated cAMP production upon activation of hCB2 (HTRF), CHO-K1 cells
# Type: cell-based
# experimental.setup: Table C-1; selectivity hCB2 over hCB1
Recorded ratio CB2 agonism over CB1 agonism determines the label; the label ranges are bottom bin = under 300, middle bin = from 300 up to 2000, top bin = 2000 and over

CC1(C)CC(Cn2c(C(C)(C)C)nc3cc(S(=O)(=O)c4ccnc(F)c4)ccc32)CCO1 (stereo not shown)
top bin

Into which bin does this compound go? `CC(C)(C)c1nc2cc(S(=O)(=O)c3ccnc(OCCCN4CCOCC4)c3)ccc2n1CC1CCOCC1` top bin

Field: class (ratio CB2 agonism over CB1 agonism) — entry: CC(=O)c1ccc([S+]([O-])c2ccc3c(c2)nc(C(C)(C)C)n3CC2CCOCC2)nc1 (stereo not shown) top bin

Lab note: which band did `CCCCN(C)c1cc(S(=O)(=O)c2ccc3c(c2)nc(C(C)(C)C)n3CC2CCOCC2)ccn1` land in? middle bin

Returns: class label. Input: `CC(=O)c1ccc(S(=O)(=O)c2ccc3c(c2)nc(C(C)(C)C)n3CC2CCOCC2)cn1` top bin

---

Quick reference for ratio CB2 agonism over CB1 agonism among some molecules
# tested.on: human CB2 (hCB2) receptor (Homo sapiens)
# Construct: expressed in transfected cells; host or cells: CHO-K1
# experiment.description: Inhibition of forskolin-activated cAMP production upon activation of hCB2 (HTRF), CHO-K1 cells
# Format: cell-based
# experimental.setup: Table C-1; selectivity hCB2 over hCB1
// print number alone

COc1cc(S(=O)(=O)c2ccc3c(c2)nc(C(C)(C)C)n3CC2CCC(F)(F)CC2)ccn1 [Co. No. 122]
102
CC(C)(C)c1nc2cc(S(=O)(=O)c3ccc[n+]([O-])c3)ccc2n1CC1CCOCC1 [Co. No. 34]
4732
Cc1cc(S(=O)(=O)c2ccc3c(c2)nc(C(C)(C)C)n3CC2CCOCC2)ccn1 [Co. No. 13]
1622
CC(C)(C)c1nc2cc(S(=O)(=O)c3ccc(C(=O)N4CCOCC4)s3)ccc2n1CC1CCOCC1 [Co. No. 79]
543
Cc1cccc(S(=O)(=O)c2ccc3c(c2)nc(C(C)(C)C)n3CC2CCOCC2)n1 [Co. No. 109]
324

// ratio CB2 agonism over CB1 agonism lookup, key: CC(C)(C)c1nc2cc(S(=O)(=O)c3ccc(C(=O)N4CCOCC4)o3)ccc2n1CC1CCOCC1 [Co. No. 80] 2483

// query ratio CB2 agonism over CB1 agonism value for entry Cn1ccc(S(=O)(=O)c2ccc3c(c2)nc(C(C)(C)C)n3CC2CCOCC2)cc1=O [Co. No. 69] 398

Which ratio CB2 agonism over CB1 agonism value is on record for CC(=O)c1ccc(S(=O)(=O)c2ccc3c(c2)nc(C(C)(C)C)n3CC2CCOCC2)nc1 [Co. No. 4] ? 1679

---

# tested.on: human CB2 (hCB2) receptor (Homo sapiens, UniProt P34972)
# Construct: expressed in transfected cells; host or cells: CHO-K1
# Sequence (P34972 whole entry): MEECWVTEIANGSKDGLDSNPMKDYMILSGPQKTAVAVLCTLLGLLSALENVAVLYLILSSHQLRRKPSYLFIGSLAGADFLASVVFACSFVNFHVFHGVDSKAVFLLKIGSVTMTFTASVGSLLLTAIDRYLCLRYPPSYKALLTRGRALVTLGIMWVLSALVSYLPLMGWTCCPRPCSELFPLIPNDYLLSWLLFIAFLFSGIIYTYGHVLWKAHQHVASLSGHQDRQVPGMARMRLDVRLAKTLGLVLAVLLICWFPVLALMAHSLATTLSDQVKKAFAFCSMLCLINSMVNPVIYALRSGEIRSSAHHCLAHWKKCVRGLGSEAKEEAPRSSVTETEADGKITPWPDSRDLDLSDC
# experiment.description: Inhibition of forskolin-activated cAMP production upon activation of hCB2 (HTRF), CHO-K1 cells
# Format: cell-based
# experimental.setup: CB2 pEC50, hCB2-CHO-K1 cells, forskolin-activated cAMP, pEC50=-log(EC50)
measured.property: EC50 (nM)
Value expressed in nM; do not type the unit.

CC(C)(C)c1nc2cc(S(=O)(=O)c3ccc[n+]([O-])c3)ccc2n1CC1CCOCC1 [Co. No. 34]
1.58
CC(C)(C)Cn1c(C(C)(C)C)nc2cc(S(=O)(=O)c3ccnc(F)c3)ccc21 [Co. No. 127]
1.66
CC(C)(C)c1nc2cc(S(=O)(=O)c3sc(S(C)(=O)=O)cc3Br)ccc2n1CC1CCOCC1 [Co. No. 64]
0.479
CC(C)(C)c1nc2cc(S(=O)(=O)c3ccnc(C#N)c3)ccc2n1CC1CCOCC1 [Co. No. 93]
1.48
COCCCc1cc(S(=O)(=O)c2ccc3c(c2)nc(C(C)(C)C)n3CC2CCOCC2)cc[n+]1[O-] [Co. No. 155]
2.51

Request - read-out EC50 | tested on human CB2 (hCB2) receptor (Homo sapiens, UniProt P34972) | compound CC(O)c1ccc(S(=O)(=O)c2ccc3c(c2)nc(C(C)(C)C)n3CC2CCOCC2)nc1 (stereo not drawn) [Co. No. 42] 0.631

---

# tested.on: human CB1 (hCB1) receptor (Homo sapiens, UniProt P21554)
# Construct: expressed in transfected cells; host or cells: CHO-K1
# Sequence (P21554 whole entry): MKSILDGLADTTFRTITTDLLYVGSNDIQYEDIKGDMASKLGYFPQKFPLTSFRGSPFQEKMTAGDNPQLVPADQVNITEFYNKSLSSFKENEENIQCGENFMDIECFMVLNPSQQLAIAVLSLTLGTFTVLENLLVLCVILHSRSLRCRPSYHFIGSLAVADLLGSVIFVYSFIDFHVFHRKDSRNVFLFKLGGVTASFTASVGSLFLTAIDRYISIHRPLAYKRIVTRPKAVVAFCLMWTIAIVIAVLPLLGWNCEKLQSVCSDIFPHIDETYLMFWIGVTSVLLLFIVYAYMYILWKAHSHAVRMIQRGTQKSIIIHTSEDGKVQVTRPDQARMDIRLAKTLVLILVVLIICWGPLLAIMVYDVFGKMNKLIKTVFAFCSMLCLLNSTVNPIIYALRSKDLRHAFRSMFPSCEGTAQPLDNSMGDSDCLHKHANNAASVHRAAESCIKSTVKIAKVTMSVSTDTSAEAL
# experiment.description: Inhibition of forskolin-activated cAMP production upon activation of hCB1 (HTRF), CHO-K1 cells
# Type: cell-based
# experimental.setup: hCB1-CHO-K1 cells, forskolin-activated cAMP, pEC50=-log(EC50)
CB1 pEC50 by entry:
# print the numeric value only

Recorded CB1 pEC50 of `CC(=O)NCCc1cc(S(=O)(=O)c2ccc3c(c2)nc(C(C)(C)C)n3CC2CCOCC2)ccn1` , please. 5.08

---

Entries and their melting point values follow.

Consider the following illustrative entries.
CC(C)(C)Cc1nc2cc(S(=O)(=O)c3cc[n+]([O-])cc3)ccc2n1CC1CCOCC1
259.7 °C
CC(=O)Nc1cc(S(=O)(=O)c2ccc3c(c2)nc(C(C)(C)C)n3CC2CCOCC2)cc[n+]1[O-]
247.2 °C
COC(=O)c1cc(C)c(S(=O)(=O)c2ccc3c(c2)nc(C(C)(C)C)n3CC2CCOCC2)s1
185.8 °C

// query melting point value for entry COC(C)c1ccc(S(=O)(=O)c2ccc3c(c2)nc(C(C)(C)C)n3CC2CCOCC2)nc1 (centres unmarked) 140 °C

Give the measured melting point of `COCCCNc1cc(S(=O)(=O)c2ccc3c(c2)nc(C(C)(C)C)n3CC2CCOCC2)ccn1` . 148.3 °C

Requested field: melting point. Item: `Cc1cc(S(=O)(=O)c2ccc3c(c2)nc(CC(C)(C)C)n3CC2CCOCC2)ccn1` 207.1 °C

Param item = `CC(C)(C)c1nc2cc(S(=O)(=O)c3ccc(S(=O)(=O)N4CCOCC4)cn3)ccc2n1CC1CCOCC1` ; retrieve measured melting point. 224 °C

Any idea what its melting point is? The compound is CC(C)(C)c1nc2cc(S(=O)(=O)c3ccnc(C#N)c3)ccc2n1CC1CCOCC1 [Co. No. 17] 201.2 °C

---

Listed compounds paired with reported ratio CB2 over CB1 agonism
# tested.on: human CB2 (hCB2) receptor (Homo sapiens)
# Construct: expressed in transfected cells; host or cells: CHO-K1
# experiment.description: Inhibition of forskolin-activated cAMP production upon activation of hCB2 (HTRF), CHO-K1 cells
# Type: cell-based
# experimental.setup: Table C-3; comparison of art compounds A to E with compounds of the invention
Reply: number alone, nothing else.

Study these solved cases before continuing.
CC(C)(C)Cc1nc2cc(S(=O)(=O)c3ccncc3)ccc2n1CC1CCOCC1 [Co. No. E, reference compound]
219
CC(C)(C)c1nc2cc(S(=O)(=O)c3ccoc3)ccc2n1CC1CCOCC1 [Co. No. D, reference compound]
26
CC(C)(C)c1nc2cc(S(=O)(=O)c3ccnc(OC(F)F)c3)ccc2n1CC1CCOCC1
4898

Proceed to the following item.
Give its ratio CB2 over CB1 agonism value. Item: CC(C)(C)c1nc2cc(S(=O)(=O)c3ccccn3)ccc2n1CC1CCOCC1 [Co. No. C, reference compound] 36

---

# tested.on: human CB2 (hCB2) receptor (Homo sapiens)
# Construct: expressed in transfected cells; host or cells: CHO-K1
# experiment.description: Inhibition of forskolin-activated cAMP production upon activation of hCB2 (HTRF), CHO-K1 cells
# Type: cell-based
# experimental.setup: Table C-1; selectivity hCB2 over hCB1
measured.property: ratio CB2 agonism over CB1 agonism

COc1cc(S(=O)(=O)c2ccc3c(c2)nc(C(C)(C)C)n3CC2CCOCC2)ccn1 [Co. No. 70]
2570
CC(=O)c1ccc(S(=O)(=O)c2ccc3c(c2)nc(C(C)(C)C)n3CC2CCOCC2)s1 [Co. No. 40]
193

Entry CC(=O)Nc1ccc(S(=O)(=O)c2ccc3c(c2)nc(C(C)(C)C)n3CC2CCOCC2)nn1 [Co. No. 101] : reported ratio CB2 agonism over CB1 agonism = ? 58

So what's the measured ratio CB2 agonism over CB1 agonism for this one? CC(C)(C)c1nc2cc(S(=O)(=O)c3c(Cl)cncc3Cl)ccc2n1CC1CCOCC1 [Co. No. 84] 490

// returns reported ratio CB2 agonism over CB1 agonism for input CC(=O)NCCc1cc(S(=O)(=O)c2ccc3c(c2)nc(C(C)(C)C)n3CC2CCOCC2)ccn1 [Co. No. 158] 5888

Name the recorded ratio CB2 agonism over CB1 agonism for CC(C)(C)c1nc2cc(S(=O)(=O)c3ccc(CN)nc3)ccc2n1CC1CCOCC1 [Co. No. 116] . 966

Recorded ratio CB2 agonism over CB1 agonism of CC(C)(C)c1nc2cc(S(=O)(=O)c3ccc(S(C)(=O)=O)o3)ccc2n1CC1CCOCC1 [Co. No. 20] , please. 347

Please look up its ratio CB2 agonism over CB1 agonism: CC(C)(C)c1nc2cc(S(=O)(=O)c3ccnc(F)c3)ccc2n1C[C@H]1CC[C@@](C)(O)CC1 [Co. No. 153] >11749

Param item = Cn1nc(S(=O)(=O)c2ccc3c(c2)nc(C(C)(C)C)n3CC2CCOCC2)ccc1=O [Co. No. 100] ; retrieve measured ratio CB2 agonism over CB1 agonism. 631

Sourced from patent US9284303B2
